biological target: GluN1/2A (Homo sapiens, UniProt Q05586+Q12879); assay: NMDA receptor subunit selectivity of CNS004 analogs, average response, 1/2A; type: cell-based; settings: compound 100 μM
Sequence (Q12879 23-1464, other chains not shown): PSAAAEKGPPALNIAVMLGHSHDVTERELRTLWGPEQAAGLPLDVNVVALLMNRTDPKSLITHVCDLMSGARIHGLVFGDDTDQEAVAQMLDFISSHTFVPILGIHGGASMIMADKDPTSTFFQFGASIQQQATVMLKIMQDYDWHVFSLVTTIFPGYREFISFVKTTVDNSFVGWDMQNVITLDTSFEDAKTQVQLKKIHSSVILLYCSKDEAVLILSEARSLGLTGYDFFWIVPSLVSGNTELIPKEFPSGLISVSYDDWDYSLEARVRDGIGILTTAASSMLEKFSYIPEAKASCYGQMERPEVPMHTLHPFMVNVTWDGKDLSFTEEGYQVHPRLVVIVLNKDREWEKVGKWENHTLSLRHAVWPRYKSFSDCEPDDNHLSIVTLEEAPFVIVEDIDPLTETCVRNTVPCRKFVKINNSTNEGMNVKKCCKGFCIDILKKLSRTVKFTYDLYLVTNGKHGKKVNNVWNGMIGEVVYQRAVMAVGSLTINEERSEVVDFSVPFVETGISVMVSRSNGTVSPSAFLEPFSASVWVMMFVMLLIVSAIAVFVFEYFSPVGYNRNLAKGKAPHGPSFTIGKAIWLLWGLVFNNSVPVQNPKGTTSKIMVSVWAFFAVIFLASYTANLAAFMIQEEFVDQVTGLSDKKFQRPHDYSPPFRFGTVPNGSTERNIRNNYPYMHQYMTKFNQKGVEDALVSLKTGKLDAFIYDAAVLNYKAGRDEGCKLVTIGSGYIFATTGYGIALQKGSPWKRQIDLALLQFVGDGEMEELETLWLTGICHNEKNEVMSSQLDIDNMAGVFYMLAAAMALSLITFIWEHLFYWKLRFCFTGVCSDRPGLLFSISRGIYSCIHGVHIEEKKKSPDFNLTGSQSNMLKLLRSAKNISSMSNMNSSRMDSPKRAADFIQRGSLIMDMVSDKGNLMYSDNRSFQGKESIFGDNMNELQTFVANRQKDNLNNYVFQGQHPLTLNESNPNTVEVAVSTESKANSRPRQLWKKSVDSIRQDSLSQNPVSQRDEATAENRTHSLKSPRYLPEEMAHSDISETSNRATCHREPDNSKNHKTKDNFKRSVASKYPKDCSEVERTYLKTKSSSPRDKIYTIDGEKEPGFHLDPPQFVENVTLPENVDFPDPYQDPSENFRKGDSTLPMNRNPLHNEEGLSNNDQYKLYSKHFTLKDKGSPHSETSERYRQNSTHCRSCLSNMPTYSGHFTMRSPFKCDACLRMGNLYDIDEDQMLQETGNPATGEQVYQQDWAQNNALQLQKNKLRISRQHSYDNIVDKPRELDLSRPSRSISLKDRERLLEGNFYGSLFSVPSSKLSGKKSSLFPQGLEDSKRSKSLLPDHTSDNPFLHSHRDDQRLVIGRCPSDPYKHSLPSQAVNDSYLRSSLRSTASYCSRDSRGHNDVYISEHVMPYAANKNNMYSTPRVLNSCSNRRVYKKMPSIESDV
REPORTED_PROPERTY: Average Response (% inhibition), 1/2A

Check out these entries, answers already filled in.
[[record]]
compound = "O=C(NC(=S)N1CCCCC1c1cccnc1)c1ccc(CCCF)cc1 (stereo not shown)"
result_number = "−21.076"

[[record]]
compound = "COCCCc1ccc(C(=O)NC(=S)N2CCCCC2c2cccnc2)cc1 (stereo not shown)"
result_number = 0.4959

[[record]]
compound = "O=C(NC(=O)N1CCCCC1c1cccnc1)c1ccc(F)cc1 (stereo not shown)"
result_number = 20.43


I. O=C(NC(=S)N1CCCCC1c1cccnc1)c1ccc(Cl)c(F)c1 (stereo not shown)
II. O=C(NC(=S)N1CCCCC1c1cccnc1)c1ccc(C2CC2)cc1 (stereo not shown)
Given I and II , report the one with the higher recorded Average Response (% inhibition), 1/2A. Identify your pick by its label.
II

I. O=C(NC(=S)N1CCCCC1c1cccnc1)c1ccc(P(=O)(O)O)cc1 (stereo not shown)
II. O=C(NC(=S)N1CCCCC1c1cccnc1)c1ccc(C(F)(F)F)cc1 (stereo not shown)
Given I and II , report the one with the higher recorded Average Response (% inhibition), 1/2A. Identify your pick by its label.
I

P. Fc1ccc(C(=S)NC(=S)N2CCCCC2c2cccnc2)cc1 (stereo not shown)
Q. COc1cccc(C(=O)NC(=S)N2CCCCC2c2cccnc2)c1OC (stereo not shown)
R. O=C(NC(=S)N1CCCCC1c1cccnc1)c1cccc(F)n1 (stereo not shown)
Put the compounds in ascending order of Average Response (% inhibition), 1/2A. List each label, following the requested order.
P, R, Q

---

molecular target: GluN1/2A/2B triheteromeric NMDA receptor (Homo sapiens, UniProt Q05586+Q12879+Q13224); assay: Two-electrode voltage clamp (TEVC), Xenopus oocytes expressing recombinant GluN1/2A/2B; format: cell-based; conditions: 100 μM glycine and 100 μM glutamate; n=5; read-out: EC50 of potentiation of GluN1/2A/2B (averaged dose response curve)
REPORTED_PROPERTY: EC50 (µM)
Answer with a number only, understood to be in µM.

GET /values?readout=EC50&system=GluN1/2A/2B triheteromeric NMDA receptor (Homo sapiens, UniProt Q05586+Q12879+Q13224)&item= O=C(NC(=S)N1CCCCC1c1cccnc1)c1ccc(F)cc1 (stereo not shown) [CNS004]
160

---

target: GluN1/2B NMDA receptor (Homo sapiens, UniProt Q05586+Q13224); test: Two-electrode voltage clamp (TEVC), Xenopus oocytes expressing recombinant GluN1/2B; details: read-out: EC50 of potentiation of GluN1/2B (averaged and normalized DRC)
REPORTED_PROPERTY: EC50 (µM)
Answer with a number only, understood to be in µM.

GET /values?readout=EC50&system=GluN1/2B NMDA receptor (Homo sapiens, UniProt Q05586+Q13224)&item= O=C(NC(=S)N1CCCCC1c1cccnc1)c1ccc(F)cc1 (stereo not shown)
8.67

---

molecular target: GluN1/2A/2B (TH) (Homo sapiens, UniProt Q05586+Q12879+Q13224); assay: NMDA receptor subunit selectivity of CNS004 analogs, average response, TH; type: cell-based; details: compound 100 μM
Sequence (Q12879 23-1464, other chains not shown): as above
Sequence (Q13224 27-1484, other chains not shown): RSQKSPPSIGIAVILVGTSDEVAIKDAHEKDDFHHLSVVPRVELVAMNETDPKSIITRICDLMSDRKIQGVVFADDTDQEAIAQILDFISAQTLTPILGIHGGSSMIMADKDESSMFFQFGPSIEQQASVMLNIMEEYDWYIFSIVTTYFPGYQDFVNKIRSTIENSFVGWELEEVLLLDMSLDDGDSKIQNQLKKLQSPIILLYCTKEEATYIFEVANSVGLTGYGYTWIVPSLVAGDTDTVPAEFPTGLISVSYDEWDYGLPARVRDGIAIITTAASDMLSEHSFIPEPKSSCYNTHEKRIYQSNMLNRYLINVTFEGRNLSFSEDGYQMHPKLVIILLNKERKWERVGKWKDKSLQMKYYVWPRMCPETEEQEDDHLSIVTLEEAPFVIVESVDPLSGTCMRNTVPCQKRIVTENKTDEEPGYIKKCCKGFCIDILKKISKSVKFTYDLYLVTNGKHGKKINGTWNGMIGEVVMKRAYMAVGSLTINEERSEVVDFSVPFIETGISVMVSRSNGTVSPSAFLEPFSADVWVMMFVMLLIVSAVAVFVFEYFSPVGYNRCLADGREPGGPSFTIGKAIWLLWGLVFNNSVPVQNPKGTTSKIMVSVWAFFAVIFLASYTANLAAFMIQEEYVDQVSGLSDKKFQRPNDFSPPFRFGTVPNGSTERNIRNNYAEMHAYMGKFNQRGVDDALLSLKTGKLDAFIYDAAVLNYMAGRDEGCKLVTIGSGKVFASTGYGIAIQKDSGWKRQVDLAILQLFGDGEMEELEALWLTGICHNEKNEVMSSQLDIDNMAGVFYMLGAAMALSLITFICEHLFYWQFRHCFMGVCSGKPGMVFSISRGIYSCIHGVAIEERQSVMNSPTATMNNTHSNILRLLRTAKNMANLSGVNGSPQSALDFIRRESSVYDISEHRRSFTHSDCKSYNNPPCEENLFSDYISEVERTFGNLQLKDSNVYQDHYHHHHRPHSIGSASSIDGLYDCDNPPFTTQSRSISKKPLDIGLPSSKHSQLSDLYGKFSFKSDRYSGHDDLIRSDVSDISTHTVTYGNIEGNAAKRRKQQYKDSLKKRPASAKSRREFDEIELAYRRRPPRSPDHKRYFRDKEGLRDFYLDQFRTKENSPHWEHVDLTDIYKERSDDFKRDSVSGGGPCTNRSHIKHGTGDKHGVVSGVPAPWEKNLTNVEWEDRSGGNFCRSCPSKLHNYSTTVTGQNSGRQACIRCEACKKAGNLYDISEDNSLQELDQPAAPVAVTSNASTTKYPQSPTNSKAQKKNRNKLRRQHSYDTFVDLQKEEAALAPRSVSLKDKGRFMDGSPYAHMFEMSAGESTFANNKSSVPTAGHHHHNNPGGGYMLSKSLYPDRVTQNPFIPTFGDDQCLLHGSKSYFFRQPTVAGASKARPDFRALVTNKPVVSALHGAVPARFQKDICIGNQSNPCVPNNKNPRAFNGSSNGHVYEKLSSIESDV
REPORTED_PROPERTY: Average Response (% inhibition), TH

Check out these entries, answers already filled in.
[[record]]
molecule = "Fc1ccc(C(=S)NC(=S)N2CCCCC2c2cccnc2)cc1 (stereo not shown) [Compound 3]"
result_number = "−13.1155"

[[record]]
molecule = "COCCCc1ccc(C(=O)NC(=S)N2CCCCC2c2cccnc2)cc1 (stereo not shown) [Compound 8]"
result_number = 8.377


a. O=C(NC(=O)N1CCCCC1c1cccnc1)c1ccc(F)cc1 (stereo not shown) [Compound 4]
b. O=C(NC(=S)N1CCCCC1c1cccnc1)c1ccc(CCCF)cc1 (stereo not shown) [Compound 6]
c. O=C(NC(=S)N1CCCCC1c1cccnc1)c1ccc(C(F)(F)F)cc1 (stereo not shown) [Compound 2]
Please list the entries, largest Average Response (% inhibition), TH first. List each label, following the requested order.
b, a, c

I. O=C(NC(=S)N1CCCCC1c1cccnc1)c1cccc(F)n1 (stereo not shown) [Compound 40]
II. COc1cccc(C(=O)NC(=S)N2CCCCC2c2cccnc2)c1OC (stereo not shown) [Compound 41]
Of I and II , whose reported Average Response (% inhibition), TH is numerically smaller? Identify your pick by its label.
I

1. O=C(NC(=S)N1CCCCC1c1cccnc1)c1ccc(Cl)c(F)c1 (stereo not shown) [Compound 9]
2. O=C(NC(=S)N1CCCCC1c1cccnc1)c1ccc(P(=O)(O)O)cc1 (stereo not shown) [Compound 7]
3. O=C(NC(=S)N1CCCCC1c1cccnc1)c1ccc(C2CC2)cc1 (stereo not shown) [Compound 5]
Please list the entries, largest Average Response (% inhibition), TH first. List each label, following the requested order.
2, 3, 1
(2: 16.4617 % inhibition, 3: −2.571 % inhibition, 1: −11.9509 % inhibition)

Measured values drawn from patent US12485115B2 for this set.
